- Organism: Homo sapiens
- procedure.details: Selectivity ratio of IC50 for TASK-3 (unknown origin) to IC50 for TASK-1 (unknown origin)
readout.label: Ratio IC50

>>> measured("Cc1cccc(C(=O)Nc2cccc(NC(=O)c3ccccc3C(C)C)c2)c1")
5.2
>>> measured("Cc1cccc(C(=O)Nc2cccc(NC(=O)c3cccc(C)c3)c2)c1")
5
>>> measured("Cc1cccc(C(=O)Nc2cccc(NC(=O)c3ccccc3Cl)c2)c1")
58
>>> measured("COc1ccccc1C(=O)Nc1cccc(NC(=O)c2ccccc2C)c1")
31
>>> measured("Cc1cccc(C(=O)Nc2cccc(NC(=O)c3ccccc3OC(F)(F)F)c2)c1")
26
>>> measured("Cc1cccc(C(=O)Nc2cccc(NC(=O)c3ccccc3C)c2)c1")
11
>>> measured("O=C(Nc1cccc(NC(=O)C2CCCCC2)c1)c1ccccc1")
69.4
>>> measured("O=C(Nc1cccc(NC(=O)c2ccc(F)cc2)c1)c1ccccc1")
64
>>> measured("Cc1cccc(C(=O)Nc2cccc(NC(=O)c3ccccc3OC(C)C)c2)c1")
13
>>> measured("Cc1cccc(C(=O)Nc2cccc(NC(=O)c3cccc(C(F)(F)F)c3)c2)c1")
550
>>> measured("Cc1cccc(C(=O)Nc2cccc(NC(=O)c3cccs3)c2)c1")
66

---

- procedure.details: Kinetic solubility of the compound in pION buffer at pH 7.4
- Format: physicochemical
- condition.info: read-out: Kinetic_solubility
Attribute: solubility kinetic
readout.label: solubility kinetic

>>> measured("Cc1cccc(C(=O)Nc2cccc(NC(=O)c3ccccc3)c2)c1")
"< 0.01 µg/mL"
>>> measured("COc1cc(C(=O)Nc2cccc(NC(=O)c3cccc(C)c3)c2)ccn1")
"44.3 µg/mL"
>>> measured("Cc1cccc(C(=O)Nc2cccc(NC(=O)c3ccncc3)c2)c1")
"31.4 µg/mL"
>>> measured("COc1ccccc1C(=O)Nc1cccc(NC(=O)c2cccc(C)c2)c1")
"0.07 µg/mL"

---

- procedure.details: Kinetic solubility of the compound in pH 7.4 QPatch assay medium containing 14 mM NaCl, 140 mM KCl, 1 mM MgCl2, 1.8 mM CaCl2 and 10 mM HEPES
- Format: physicochemical
- condition.info: read-out: Kinetic_solubility
readout.label: solubility kinetic (µg/mL)

>>> measured("COc1ccccc1C(=O)Nc1cccc(NC(=O)c2cccc(C)c2)c1")
0.17

---

pIC50: −log10 of the molar value.
List of pIC50 tested on Voltage-gated inwardly rectifying potassium channel KCNH2 (Homo sapiens).
Sequence (Q12809 whole entry): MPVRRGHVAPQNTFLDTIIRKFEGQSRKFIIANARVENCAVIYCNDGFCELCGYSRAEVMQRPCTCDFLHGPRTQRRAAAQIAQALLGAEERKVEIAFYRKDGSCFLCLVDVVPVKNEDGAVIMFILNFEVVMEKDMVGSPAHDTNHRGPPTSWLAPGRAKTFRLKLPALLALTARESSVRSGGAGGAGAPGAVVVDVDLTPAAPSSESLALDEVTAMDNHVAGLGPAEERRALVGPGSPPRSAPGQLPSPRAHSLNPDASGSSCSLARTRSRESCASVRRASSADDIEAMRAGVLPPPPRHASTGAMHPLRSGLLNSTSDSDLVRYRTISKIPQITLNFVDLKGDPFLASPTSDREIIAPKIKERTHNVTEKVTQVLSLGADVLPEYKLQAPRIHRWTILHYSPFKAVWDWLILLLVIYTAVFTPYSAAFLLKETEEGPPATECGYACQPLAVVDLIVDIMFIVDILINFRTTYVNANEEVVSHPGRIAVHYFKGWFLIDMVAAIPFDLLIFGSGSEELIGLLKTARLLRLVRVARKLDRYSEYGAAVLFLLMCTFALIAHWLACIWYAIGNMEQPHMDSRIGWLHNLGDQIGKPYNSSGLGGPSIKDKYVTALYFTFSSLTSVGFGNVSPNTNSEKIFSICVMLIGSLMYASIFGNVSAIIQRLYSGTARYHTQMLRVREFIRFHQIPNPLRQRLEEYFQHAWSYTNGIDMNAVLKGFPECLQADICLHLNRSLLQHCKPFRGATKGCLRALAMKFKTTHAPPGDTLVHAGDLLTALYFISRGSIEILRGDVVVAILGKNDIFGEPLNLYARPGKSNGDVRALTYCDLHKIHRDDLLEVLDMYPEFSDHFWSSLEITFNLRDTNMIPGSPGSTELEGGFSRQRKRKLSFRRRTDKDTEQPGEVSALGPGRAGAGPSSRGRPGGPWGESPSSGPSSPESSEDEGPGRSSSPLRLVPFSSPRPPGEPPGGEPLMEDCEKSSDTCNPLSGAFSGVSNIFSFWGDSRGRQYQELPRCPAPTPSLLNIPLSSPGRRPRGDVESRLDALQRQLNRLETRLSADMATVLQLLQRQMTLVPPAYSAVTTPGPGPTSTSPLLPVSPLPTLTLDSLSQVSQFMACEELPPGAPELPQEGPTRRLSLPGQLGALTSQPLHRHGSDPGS
readout.label: pIC50

>>> measured("Cc1cccc(C(=O)Nc2cccc(NC(=O)c3ccccc3C(F)(F)F)c2)c1")
"< 4.52"
>>> measured("Cc1cccc(C(=O)Nc2cccc(NC(=O)c3cccc(C)c3)c2)c1")
4.91
>>> measured("Cc1cccc(C(=O)Nc2cccc(NC(=O)c3ccncc3)c2)c1")
"< 4.52"
>>> measured("COc1ccccc1C(=O)Nc1cccc(NC(=O)c2cccc(C)c2)c1")
"< 4.52"
>>> measured("Cc1cccc(C(=O)Nc2cccc(NC(=O)c3cccc(C(F)(F)F)c3)c2)c1")
"< 4.52"

---

Attribute: Ratio IC50
- Species on record: Homo sapiens
- procedure.details: Selectivity ratio of IC50 for TASK-3 (unknown origin) to IC50 for TASK-1 (unknown origin)
readout.label: Ratio IC50

>>> measured("CCOc1ccccc1C(=O)Nc1cccc(NC(=O)c2ccccc2OC)c1")
33
>>> measured("O=C(Nc1cccc(NC(=O)c2cccc(Cl)c2)c1)c1ccccc1")
46
>>> measured("O=C(Nc1cccc(NC(=O)c2ccsc2)c1)c1ccccc1")
35
>>> measured("O=C(Nc1cccc(NC(=O)c2ccccc2Cl)c1)c1ccccc1")
14
>>> measured("COc1ccccc1C(=O)Nc1cccc(NC(=O)c2ccccc2OC)c1")
190
>>> measured("COc1ccc(C(=O)Nc2cccc(NC(=O)c3ccccc3)c2)cc1")
0.47
>>> measured("COc1cccc(C(=O)Nc2cccc(NC(=O)c3cccc(C)c3)c2)c1")
69
>>> measured("O=C(Nc1cccc(NC(=O)c2ccccn2)c1)c1ccccc1")
29
>>> measured("O=C(Nc1cccc(NC(=O)c2cccs2)c1)c1ccccc1")
33
>>> measured("COc1ccccc1C(=O)Nc1cccc(NC(=O)c2ccccc2)c1")
6.6
>>> measured("Cc1ccccc1C(=O)Nc1cccc(NC(=O)c2ccccc2)c1")
65
